Values compiled from the supplement of paper PMC9112550.

Tested on: Escherichia coli TOP10
Experiment Description: shrunken log2 fold change of peptide-encoding DNA abundance (4.5 h post-induction vs induction); higher = less antimicrobial activity (less host growth inhibition)
Applied Conditions: time post-induction: 4.5 h; library: site-saturation at positions 5, 18, 19, 20
This listing pairs sequences with measured shrunken log2 fold change.

1) RRIRPRPPRLPRPRPRPENAPRP; 0.0319
2) RRIRERPPRLPRPRPRPDGDPRP; 0.03
3) RRIRMRPPRLPRPRPRPVHPPRP; 0.127
4) RRIRTRPPRLPRPRPRPNWKPRP; -0.0427
5) RRIRTRPPRLPRPRPRPGRRPRP; 0.244
6) RRIRSRPPRLPRPRPRPRISPRP; 0.0353
7) RRIRDRPPRLPRPRPRPIHSPRP; -0.00999
8) RRIRPRPPRLPRPRPRPWMNPRP; -0.0141
9) RRIRHRPPRLPRPRPRPCEQPRP; -0.0166
10) RRIRMRPPRLPRPRPRPKTNPRP; 0.864

# input sequence: RRIRERPPRLPRPRPRPCTNPRP ; wanted: its shrunken log2 fold change
-0.559

Now the same for RRIRYRPPRLPRPRPRPLEYPRP
-0.443

----------
// shrunken log2 fold change lookup, one value per entry
Tested on: Escherichia coli TOP10
Experiment Description: shrunken log2 fold change of peptide-encoding DNA abundance (4.5 h post-induction vs induction); higher = less antimicrobial activity (less host growth inhibition)
Applied Conditions: time post-induction: 4.5 h; library: site-saturation at positions 5, 18, 19, 20
Answer with a bare number; do not write a unit.

1. RRIRRRPPRLPRPRPRPAIFPRP; -0.0696
2. RRIRARPPRLPRPRPRPPSAPRP; 0.827
3. RRIRKRPPRLPRPRPRPVIVPRP; -0.0233
4. RRIRNRPPRLPRPRPRPGVSPRP; -0.279
5. RRIRDRPPRLPRPRPRPWGLPRP; 0.0419

Now let's try a different one.
Identify the measured shrunken log2 fold change of RRIRDRPPRLPRPRPRPAVYPRP for Escherichia coli TOP10.
-0.097

----------
A collection of sequences and their measured shrunken log2 fold change
Tested on: Escherichia coli TOP10;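 note: peptides expressed intracellularly from a pBAD plasmid library in pooled LB shake-flask culture, induced with 0.3% L-arabinose, DNA abundance read by NGS, three biological replicates, DESeq2 with apeglm shrinkage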
Experiment Description: shrunken log2 fold change of peptide-encoding DNA abundance (4.5 h post-induction vs induction); higher = less antimicrobial activity (less host growth inhibition)
Applied Conditions: time post-induction: 4.5 h; library: site-saturation at positions 5, 18, 19, 20
# output: bare number, no unit

1. RRIRLRPPRLPRPRPRPTFCPRP; 0.0876
2. RRIRSRPPRLPRPRPRPKANPRP; 0.126
3. RRIRCRPPRLPRPRPRPMFTPRP; -0.497
4. RRIRYRPPRLPRPRPRPHCNPRP; -0.366
5. RRIRSRPPRLPRPRPRPQPQPRP; 0.47

Bench note: what shrunken log2 fold change did RRIRHRPPRLPRPRPRPVSAPRP show?
0.0852

Now try RRIRCRPPRLPRPRPRPMDNPRP .
-0.411

Thanks! And RRIRMRPPRLPRPRPRPHTDPRP ?
0.0445

Continue with RRIRQRPPRLPRPRPRPQDMPRP
0.0179

Again, but for RRIRVRPPRLPRPRPRPWYRPRP
-0.39

Same question for RRIRGRPPRLPRPRPRPNQWPRP please.
0.259

Moving on to RRIRDRPPRLPRPRPRPTHEPRP
1.09

Queued: RRIRNRPPRLPRPRPRPFCSPRP
-0.0765

What about this sequence? RRIRPRPPRLPRPRPRPEGDPRP
0.39

Try RRIRDRPPRLPRPRPRPGGSPRP next.
0.25

Next: RRIRYRPPRLPRPRPRPSQQPRP
0.102

Also check RRIRQRPPRLPRPRPRPQAKPRP
0.0346

Follow-up entry: RRIRTRPPRLPRPRPRPDCRPRP
0.106

Next sequence: RRIRARPPRLPRPRPRPWEVPRP
0.205

Same question for RRIRARPPRLPRPRPRPNQNPRP please.
0.0844

Proceed to RRIRIRPPRLPRPRPRPEFGPRP
0.129

Now try RRIRPRPPRLPRPRPRPKHKPRP .
-0.0938

Field entry: RRIRPRPPRLPRPRPRPVHMPRP
0.215

Would you kindly repeat that for RRIRVRPPRLPRPRPRPHNWPRP ?
-0.0818

Next up: RRIRCRPPRLPRPRPRPKPRPRP
0.749
